- TARGET SYSTEM: CXCR4 receptor (UniProt P61073 1-352, limits assumed)
- Sequence (P61073 whole entry): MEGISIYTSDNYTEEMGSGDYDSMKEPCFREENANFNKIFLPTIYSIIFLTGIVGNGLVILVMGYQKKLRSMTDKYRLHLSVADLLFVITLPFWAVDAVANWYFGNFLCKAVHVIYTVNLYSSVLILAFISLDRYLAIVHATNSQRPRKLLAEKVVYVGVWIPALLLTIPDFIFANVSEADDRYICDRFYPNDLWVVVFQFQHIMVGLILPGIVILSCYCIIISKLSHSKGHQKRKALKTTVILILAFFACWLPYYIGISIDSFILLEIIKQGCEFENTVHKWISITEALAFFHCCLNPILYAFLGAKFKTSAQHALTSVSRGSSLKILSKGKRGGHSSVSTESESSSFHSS
- ASSAY PROCEDURE: cell-based or functional assay
Where no end group is shown, it is not given here.
MEASURED PROPERTY: Concentration, required for complete inhibition of [Ca^2+I] release (SDF-1α-induced)

1) KVYVGVWIPALLLTIPDFIF [F-4-1]	> 50 µM
2) HIMVGLILPGIVILSCYCIII-NH2 (cysteine pairing not given here) [F-5-1]	> 50 µM

// Concentration, required for complete inhibition of [Ca^2+I] release (SDF-1α-induced) value for ALAFFHCCLNPILYAFLGAK-NH2 (cysteine pairing not given here) [F-7-1] : > 100 µM
